# TEST NAME: NCI Yeast Anticancer Drug Screen. Data for the sgs1 mgt1 strain (AID 161);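 note: 0% = growth of cultures given vehicle only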
# EXPERIMENTAL CONTEXT: S. cerevisiae sgs1 mgt1 strain, at 50.0 µM (retest, dose inferred, filed as 5.0), hits give high values
This is part of a sample that, as a whole, favours compounds with a hit. Of some 79,000 tested, about 15% had one in any assay.
QUANTITY: growth inhibition (%)
Give bare numbers, in %.

{"columns": ["MOLECULE", "REPORTED"],
 "data": [
  ["CN(C)c1ccc(C(c2c(O)c3ccccc3oc2=O)c2c(O)c3ccccc3oc2=O)cc1", 42],
  ["CCC(C)c1cnc(CC(C)C)c(=O)n1O (stereo unspecified)", 98],
  ["CC(=O)c1cc2c(cc1O)C(C)(C)CCC2(C)C", 1],
  ["O=[N+]([O-])/C=C\\C(Cl)(Cl)Cl", 99],
  ["C1=C[N-]c2c3c(ccc2=C1)=CC=C[N-]3.C1=C[N-]c2c3c(ccc2=C1)=CC=C[N-]3.F[P-](F)(F)(F)(F)F.[Cu+2]", 99]
]}

Could you report growth inhibition for every entry in the following list?
1. CCC[CH2][Sn]1([CH2]CCC)[O]C(=O)c2cccnc2[S]1
2. O=[N+]([O-])O.[In]
3. CC[PH+](CC)CC[S-].CC[PH+](CC)CC[S-].[Au+].[Au+]
4. Sc1ccccc1.[Ag]

(A)
97
43
23
98

# batch: return growth inhibition for each of the 2 molecules below
1. Cc1ccc(C(=O)C2C(c3ccccc3)N2C2CCCCC2)cc1 (stereo unspecified)
2. CCC[CH2][Sn]([CH2]CCC)[S]CC(N)C(=O)O (stereo unspecified)

(A)
1: 89; 2: 95
